Source listed as PubChem BioAssay (EPA / NIEHS).

# Assay summary: BSK_3C_Proliferation: Cell Proliferation Assessment in the BioMAP Diversity Plus: 3C Assay (AID 2283006);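 for AC50: potency may reflect either rise or fall in cell number versus DMSO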
# Test conditions: primary human endothelial cells (HUVEC)
Calls of active or inactive are those of the source. Rule for the calls: active = hit-call score of the fitted dose curve at least 0.9, where 1 is the maximum; inactive = score below 0.9.
Experimental endpoint: AC50

Dear colleague, please send me the reported AC50 for CCCCC(CC)COC(=O)/C=C\C(=O)OCC(CC)CCCC (stereo not given) when you can. inactive

Dear colleague, please send me the reported AC50 for Cc1ccc(Nc2ccc(O)c3c2C(=O)c2ccccc2C3=O)cc1 when you can. inactive

Dear colleague, please send me the reported AC50 for CC(=O)O[C@]1(C(C)=O)CC[C@H]2[C@@H]3C[C@H](C)C4=CC(=O)CC[C@]4(C)[C@H]3CC[C@@]21C when you can. inactive

Dear colleague, please send me the reported AC50 for CCn1c2ccccc2c2cc(N)ccc21 when you can. 13.3 µM (active)

Dear colleague, please send me the reported AC50 for O=C(O)c1cn(C2CC2)c2cc(N3CCNCC3)c(F)cc2c1=O when you can. inactive

New cases:
Dear colleague, please send me the reported AC50 for CCCCC/C=C/C=C/C=O when you can. 20 µM (active)

Dear colleague, please send me the reported AC50 for C[C@H]1C[C@@H]2[C@H]([C@@H](O)C[C@@]3(C)[C@H]2CC[C@]3(O)C(=O)CO)[C@@]2(C)C=CC(=O)C=C12 when you can. inactive

Dear colleague, please send me the reported AC50 for CC1CCC(C(C)CS)CC1S (stereo not given) when you can. 25.7 µM (active)

Dear colleague, please send me the reported AC50 for NCCNCCN when you can. inactive

Dear colleague, please send me the reported AC50 for CC(C)Oc1ccccc1O when you can. inactive

Dear colleague, please send me the reported AC50 for CC(C)(COC(=O)c1ccccc1)COC(=O)c1ccccc1 when you can. 22.2 µM (active)
